Data origin, for the record: the supplement of paper PMC10290057

- Test system: HCT116;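 further: Luminescence-based viability readout, five doses per compound, normalized against on-plate DMSO and empty-well controls, followed by dose-response curve fitting for every drug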
- test_summary: efficacy (fitted maximal change in viability relative to DMSO control); higher = less cytotoxic (negative = loss of viability)
- measurement_context: 48 h
Counter-ions that a name gives are not always drawn.
Quick rule: efficacy of at least -10% means y, below that means n.

**Q:** Quick check: does Nc1cccc2c1CN([C@H]1CCC(=O)NC1=O)C2=O [Lenalidomide] have efficacy greater than or equal to -10%?
**A:** n

**Q:** Quick check: does `CCn1c(C(=O)N(C2CC2)C2CC2)cc2c3c(ncn3C)c(Nc3cc(C)n(C)n3)nc21` have efficacy greater than or equal to -10%?
**A:** n

**Q:** Quick check: does CCC(=O)O[C@@]1(CC[C@H]2[C@@H]3CCC/4=C/C(=O)CC[C@]4(C)[C@H]3CC[C@]12C)C(=O)CO [17 alpha-propionate] have efficacy greater than or equal to -10%?
**A:** n

**Q:** Quick check: does `Cc1c(C(=O)Nc2cccc(C(F)(F)F)c2)cc(-c2ccccc2)n1CCCN1CCOCC1` have efficacy greater than or equal to -10%?
**A:** n

**Q:** Quick check: does CO[C@H]1CCC(O[C@H]2C[C@H]([C@]3(C)CC[C@]4(C[C@H](O)[C@@H](C)[C@@H]([C@@H](C)/C=C(\C)C(=O)[C@H](C)C[C@H](C)C(=O)[O-])O4)O3)O[C@]3(O[C@@H]([C@H]4O[C@@](O)(CO)[C@H](C)C[C@@H]4C)C[C@@H]3C)[C@@H]2C)O[C@@H]1C (some centres not stated) [Nanchangmycin] have efficacy greater than or equal to -10%?
**A:** n

**Q:** Quick check: does CC1(C)[C@@H](O[C@H]2O[C@H](C(=O)O)[C@@H](O)[C@H](O)[C@H]2O[C@@H]2O[C@H](C(=O)O)[C@@H](O)[C@H](O)[C@H]2O)CC[C@]2(C)[C@H]3C(=O)C=C4[C@@H]5C[C@@](C)(C(=O)O)CC[C@]5(C)CC[C@@]4(C)[C@]3(C)CC[C@@H]12 [Ammonium Glycyrrhizinate] have efficacy greater than or equal to -10%?
**A:** y

**Q:** Quick check: does O=c1[nH]c2ccccc2n1C1CCN(Cc2ccc(-c3nc4cc5nc[nH]c5cc4nc3-c3ccccc3)cc2)CC1 [AKT Inhibitor VIII] have efficacy greater than or equal to -10%?
**A:** n

**Q:** Quick check: does CN(C)CCOC(c1ccccc1)c1ccccc1 [Diphenhydramine hydrochloride] have efficacy greater than or equal to -10%?
**A:** n

**Q:** Quick check: does N#C[C@@H]1C[C@@H]2C[C@@H]2N1C(=O)[C@@H](N)C12CC3CC(CC(O)(C3)C1)C2 [Saxagliptin] have efficacy greater than or equal to -10%?
**A:** y

**Q:** Quick check: does CC(C)(Cc1ccc2ccccc2c1)NC[C@@H](O)COc1cccc(Cl)c1C#N [NPS-2143] have efficacy greater than or equal to -10%?
**A:** n

**Q:** Quick check: does CC[C@@]1(O)C(=O)OCC/2=C1/C=C3\N(CC4=CC5=CC(=CC=C5N=C34)O)C2=O [10-hydroxycamptothecin] have efficacy greater than or equal to -10%?
**A:** n

**Q:** Quick check: does Cc1cncc2cccc([S+](=O)([O-])N3CCCN(C(=O)CN)C[C@@H]3C)c12 [Glycyl-H-1152] have efficacy greater than or equal to -10%?
**A:** n
